Values compiled from patent US20230355720A1.

In this section we review reported In vitro activity (%) compared with native peptide, vs Glucagon values for a set of binders.
molecular target: human GCG receptor (human, UniProt P47871 26-477); assay: cell-based or functional assay
Sequence (P47871 26-477): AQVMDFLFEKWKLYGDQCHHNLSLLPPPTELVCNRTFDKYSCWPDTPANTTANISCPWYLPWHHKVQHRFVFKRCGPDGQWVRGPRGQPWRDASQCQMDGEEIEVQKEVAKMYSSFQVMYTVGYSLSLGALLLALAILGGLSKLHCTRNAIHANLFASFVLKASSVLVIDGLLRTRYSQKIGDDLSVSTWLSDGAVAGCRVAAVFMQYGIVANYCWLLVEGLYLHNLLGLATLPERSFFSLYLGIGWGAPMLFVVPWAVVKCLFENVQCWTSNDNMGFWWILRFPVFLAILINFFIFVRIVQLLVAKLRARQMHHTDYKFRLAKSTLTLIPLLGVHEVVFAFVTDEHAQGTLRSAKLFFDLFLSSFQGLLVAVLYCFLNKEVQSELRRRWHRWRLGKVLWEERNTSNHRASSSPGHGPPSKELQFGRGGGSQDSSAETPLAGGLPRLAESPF
Bridge positions count the residues as written; N and C are the ends. Square brackets hold non-standard residues; d marks the D form. Ends that are not written are not given here. * marks the point of attachment. Acetyl(2-(4-imidazolyl)) = O=C(Cc1c[nH]cn1)*; Aib = CC(C)(N)C(=O)O
measuredProperty: In vitro activity (%) compared with native peptide, vs Glucagon

[[record]]
binder = "H[Aib]EGTFTSDYSIAMDEIHQKDFVNWLLAQKC (bridge 16-20; not fully specified) [triple agonist of SEQ ID NO: 79]"
boundoperator = "="
datavalue = 4.9

[[record]]
binder = "[Acetyl(2-(4-imidazolyl))]GQGTFTSDLSKQMDSEAQQLFIEWLKNGGPSSGAPPPSHG (not fully specified) [triple agonist of SEQ ID NO: 16]"
boundoperator = "<"
datavalue = 0.1

[[record]]
binder = "[Acetyl(2-(4-imidazolyl))][Aib]EGTFTSDYSIAMDEIHQKDFVNWLLAQC (bridge 16-20; not fully specified) [triple agonist of SEQ ID NO: 83]"
boundoperator = "="
datavalue = 1.3

[[record]]
binder = "{Acetyl(2-(4-imidazolyl))}-[Aib]EGTFTSDYSIAMDEIHQKDFVDWLLAEC (bridge 15-19; numbers in words are those of the source; also: ring between positions 16 and 20, type not given here) [triple agonist of SEQ ID NO: 84]"
boundoperator = "<"
datavalue = 0.1

[[record]]
binder = "Y[Aib]QGTFTSDYSKALDEKAAKEFVQWLLDQHPSSGQPPPSC (bridge 16-20) [triple agonist of SEQ ID NO: 100]"
boundoperator = "="
datavalue = 12.7

[[record]]
binder = "H[Aib]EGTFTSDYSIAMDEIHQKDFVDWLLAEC (bridge 16-20) [triple agonist of SEQ ID NO: 54]"
boundoperator = "="
datavalue = 1.4

[[record]]
binder = "H[Aib]QGTFTSDYSKYLDEKRQKEFVNWLLAQKC (bridge 16-20) [triple agonist of SEQ ID NO: 34]"
boundoperator = "="
datavalue = 0.92

[[record]]
binder = "{Acetyl(2-(4-imidazolyl))}-[Aib]EGTFTSDYSIAMDEIHQKDFVDWLLAEKC (bridge 15-19; numbers in words are those of the source; also: ring between positions 16 and 20, type not given here) [triple agonist of SEQ ID NO: 91]"
boundoperator = "="
datavalue = 16.8

[[record]]
binder = "[Acetyl(2-(4-imidazolyl))]GQGTFTSDLSIQYEEEAQQDFVEWLKDTGPSSGAPPPSHG (not fully specified) [triple agonist of SEQ ID NO: 20]"
boundoperator = "<"
datavalue = 0.1

